Biological target: enzyme ACAT-1 (Homo sapiens)
Construct: endogenous in cells
Sequence (P35610 1-550): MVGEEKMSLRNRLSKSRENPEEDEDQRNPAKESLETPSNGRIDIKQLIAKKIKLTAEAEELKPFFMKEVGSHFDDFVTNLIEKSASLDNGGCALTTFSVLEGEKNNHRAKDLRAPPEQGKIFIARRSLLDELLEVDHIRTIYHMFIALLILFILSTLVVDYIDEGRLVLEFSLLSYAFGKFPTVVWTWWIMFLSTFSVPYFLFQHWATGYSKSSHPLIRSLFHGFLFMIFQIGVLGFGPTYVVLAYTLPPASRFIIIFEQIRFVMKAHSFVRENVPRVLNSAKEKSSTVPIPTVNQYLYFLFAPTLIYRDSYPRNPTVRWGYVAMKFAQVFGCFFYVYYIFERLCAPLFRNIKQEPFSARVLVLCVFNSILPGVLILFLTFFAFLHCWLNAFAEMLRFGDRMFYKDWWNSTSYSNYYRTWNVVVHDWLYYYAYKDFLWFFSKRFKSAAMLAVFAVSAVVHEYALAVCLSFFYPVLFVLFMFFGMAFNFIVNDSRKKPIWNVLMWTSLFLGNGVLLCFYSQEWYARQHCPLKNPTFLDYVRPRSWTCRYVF
Test: primary HepG2 enzyme test: cell-based NBD-cholesterol fluorescence assay of ACAT-1 (SOAT-1) inhibition
Details: HepG2 cells, NBD-cholesterol 1 μg/ml, incubation 6 h at 37° C., fluorescence excitation 490 nm / emission 540 nm
value_kind: IC50 (nM)
Response body: numeric value in nM, unit text excluded.

Checklist item: IC50 tested on enzyme ACAT-1 (Homo sapiens), entry CC(C)c1cccc(C(C)C)c1NC(=O)NCC1(SCc2ccccc2)CCCCC1 , value?
71

All values here come from patent US8283378B2.
